Catalogue of compounds with associated Papp
- testDetails: Permeability at pH 6.5 by PAMPA method
testReadout: Papp (×10⁻⁶ cm/s)

INSERT INTO assay_data (compound, testreadout, measuredvalue) VALUES
  ('CCn1cc(C(=O)O)c(=O)c2cc(F)c(N3CCNCC3)nc21', 'Papp', 7.7),
  ('COc1c(N2CCNC(C)C2)c(F)cc2c(=O)c(C(=O)O)cn(C3CC3)c12 (centres undefined)', 'Papp', 20),
  ('NC(N)=Nc1nc(CSCCC(N)=NS(N)(=O)=O)cs1', 'Papp', 0.6),
  ('N[C@@H](Cc1ccc(N(CCCl)CCCl)cc1)C(=O)O', 'Papp', 84),
  ('CN1C(C(=O)Nc2ccccn2)=C(O)c2ccccc2S1(=O)=O', 'Papp', 20),
  ('C[C@@H]1CN(c2c(F)c(N)c3c(=O)c(C(=O)O)cn(C4CC4)c3c2F)C[C@H](C)N1', 'Papp', 42),
  ('Nc1nc2c(ncn2COCCO)c(=O)[nH]1', 'Papp', 0.8),
  ('COc1cccc2c1C(=O)c1c(O)c3c(c(O)c1C2=O)C[C@@](O)(C(C)=O)C[C@@H]3O[C@H]1C[C@H](N)[C@H](O)[C@H](C)O1', 'Papp', 0.3),
  ('C[C@H]1c2cccc(O)c2C(=O)C2=C(O)[C@]3(O)C(=O)C(C(N)=O)=C(O)[C@@H](N(C)C)[C@@H]3[C@@H](O)[C@@H]21.O', 'Papp', 20);

Data credit: ChEMBL document CHEMBL1156784
